# MEASURED_TARGET: panel of 255 wild-type kinases (Homo sapiens)
# Sequence (Q16539 whole entry): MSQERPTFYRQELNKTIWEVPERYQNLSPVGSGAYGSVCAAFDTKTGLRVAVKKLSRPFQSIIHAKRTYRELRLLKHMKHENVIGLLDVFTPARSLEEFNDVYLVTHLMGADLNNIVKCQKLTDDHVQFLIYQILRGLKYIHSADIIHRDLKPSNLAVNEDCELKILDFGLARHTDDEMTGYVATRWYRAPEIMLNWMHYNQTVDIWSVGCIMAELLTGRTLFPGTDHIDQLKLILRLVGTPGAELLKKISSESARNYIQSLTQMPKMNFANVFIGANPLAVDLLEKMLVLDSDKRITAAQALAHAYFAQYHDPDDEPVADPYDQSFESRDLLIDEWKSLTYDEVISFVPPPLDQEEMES
# PROCEDURE_TEXT: Kinase panel profiling at 1 µmol/L (MSA or IMAP), percentage inhibition
# Assay type: biochemical
# ASSAY_CONDITIONS: p38α; 1 µmol/L single concentration; read-out: %-inhibition, p38α
ASSAY_METRIC: inhibition at 1 µM (%)
Quick reminder: number only, in %, skip the unit.

Form field inhibition at 1 µM, entry C[C@H]1Oc2cc(cnc2N)-c2c(nn(C)c2C#N)CN(C)C(=O)c2ccc(F)cc21 : 6

Form field inhibition at 1 µM, entry COC(=O)N[C@@H](C)CNc1nccc(-c2cn(C(C)C)nc2-c2cc(Cl)cc(NS(C)(=O)=O)c2F)n1 : 35

Form field inhibition at 1 µM, entry CN1CCN(c2ccc(C(=O)Nc3n[nH]c4ccc(Cc5cc(F)cc(F)c5)cc34)c(NC3CCOCC3)c2)CC1 : 7

Form field inhibition at 1 µM, entry Cn1cnc2c(F)c(Nc3ccc(Br)cc3Cl)c(C(=O)NOCCO)cc21 : 3.34

Form field inhibition at 1 µM, entry CCc1nc(C(N)=O)c(Nc2ccc(N3CCC(N4CCN(C)CC4)CC3)c(OC)c2)nc1NC1CCOCC1 : 4

Form field inhibition at 1 µM, entry C=CC(=O)N1CCC([C@@H]2CCNc3c(C(N)=O)c(-c4ccc(Oc5ccccc5)cc4)nn32)CC1 : -1.11

Form field inhibition at 1 µM, entry CCN1CCN(c2ccc(Nc3cc(N(C)C(=O)Nc4c(Cl)c(OC)cc(OC)c4Cl)ncn3)cc2)CC1 : 4.45

Form field inhibition at 1 µM, entry COc1cc2ncnc(Nc3ccc(F)c(Cl)c3)c2cc1NC(=O)/C=C/CN1CCCCC1 : 39
